Test system: 299254-011-R-J1-PDC complex spheroid viability
Test: Anticancer human tumor 299254-011-R-J1-PDC patient-derived melanoma cell line growth inhibition [POLQ]
Settings: curve of first compound; second compound 1 µM
Procedure: Multicellular complex tumor spheroid response to Polymerase (POL) inhibitors (novobiocin, ART-558, RP6685) in combination with a variety of drugs and investigational agents in selected tumor cell lines The POL inhibitors (novobiocin, ART-558, and RP6685) were evaluated both individually and in combination with standard of care and investigational anticancer small molecules within a complex spheroid model of solid tumors. . […]
attribute measured: IC50

See these solved cases before continuing.
molecule	observed
COc1cc2cc(C(=O)CCC(=O)O)sc2cc1OC + Nc1ccc(C#CCN(C(=O)Cc2ncc(C(F)(F)F)cc2C(F)(F)F)c2ccc(F)cc2)nn1	> 10 µM
O=c1[nH]cc(F)c(=O)[nH]1 + Nc1ccc(C#CCN(C(=O)Cc2ncc(C(F)(F)F)cc2C(F)(F)F)c2ccc(F)cc2)nn1	> 10 µM
C=CC(=O)N1CCN(c2nc(=O)n(-c3c(C)ccnc3C(C)C)c3nc(-c4c(O)cccc4F)c(F)cc23)C(C)C1 (stereo not drawn) + Cc1cccc(N(C)C(=O)C2C(O)CCN2c2nc(C)cc(C(F)(F)F)c2C#N)c1	> 10 µM

Case CCc1cc2c(N3CCc4c(cc(Cn5ccnc5)cc4-c4cn(C)nc4C(F)(F)F)C3=O)cc(C)nc2c(OC)n1 + Cc1cccc(N(C)C(=O)C2C(O)CCN2c2nc(C)cc(C(F)(F)F)c2C#N)c1 , 299254-011-R-J1-PDC complex spheroid viability, IC50 recorded as > 10 µM

Record CC1COCCN1c1cc(C2(S(C)(=N)=O)CC2)nc(-c2ccnc3[nH]ccc23)n1 (stereo not drawn) + Cc1cccc(N(C)C(=O)C2C(O)CCN2c2nc(C)cc(C(F)(F)F)c2C#N)c1 / 299254-011-R-J1-PDC complex spheroid viability, IC50 recorded as 6.25 µM

The molecule CC1COCCN1c1cc(C2(O)CC3CCC(C2)O3)c2cnn(-c3ccn[nH]3)c2n1 (stereo not drawn) + Cc1cccc(N(C)C(=O)C2C(O)CCN2c2nc(C)cc(C(F)(F)F)c2C#N)c1 , tested on 299254-011-R-J1-PDC complex spheroid viability, showed IC50 of 0.153 µM

Record COc1cc2cc(C(=O)CCC(=O)O)sc2cc1OC + Cc1cccc(N(C)C(=O)C2C(O)CCN2c2nc(C)cc(C(F)(F)F)c2C#N)c1 / 299254-011-R-J1-PDC complex spheroid viability, IC50 recorded as > 10 µM

Entry O=C(Nc1ccc(O)c(NS(=O)(=O)c2ccc(F)cc2)c1)c1ccc(-c2ccccc2)cc1 + Cc1cccc(N(C)C(=O)C2C(O)CCN2c2nc(C)cc(C(F)(F)F)c2C#N)c1 : IC50 on 299254-011-R-J1-PDC complex spheroid viability = > 10 µM

----------
Parameter: viability, T/C. Scope: all listed entries.
test system: 299254-011-R-J1-PDC complex spheroid viability; assay: Anticancer human tumor 299254-011-R-J1-PDC cell line growth inhibition [POLQ]; conditions: second compound 1 µM; first compound 0.1 µM; stronger effect = lower value;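 also: spheroids exposed to drugs for one week before measurement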;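 as to viability, T/C: percent viability relative to DMSO vehicle control taken as 100%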
Numbers only; they are read as %.

Sample answers from the record:
molecule	subject of test	viability, T/C (%)
C=CC(=O)N1CCN(c2nc(=O)n(-c3c(C)ccnc3C(C)C)c3nc(-c4c(O)cccc4F)c(F)cc23)C(C)C1 (stereo not drawn) + COC1C(OC(N)=O)C(O)C(Oc2ccc3c(O)c(NC(=O)c4ccc(O)c(CC=C(C)C)c4)c(=O)oc3c2C)OC1(C)C	299254-011-R-J1-PDC complex spheroid viability	70.7
O=C(c1cc(Cc2n[nH]c(=O)c3ccccc23)ccc1F)N1CCN(C(=O)C2CC2)CC1 + Cc1cccc(N(C)C(=O)C2C(O)CCN2c2nc(C)cc(C(F)(F)F)c2C#N)c1	299254-011-R-J1-PDC complex spheroid viability	101

Then there is this molecule:
Please fill in: viability, T/C reported for Cn1ncnc1[C@H]1c2n[nH]c(=O)c3cc(F)cc(c23)N[C@@H]1c1ccc(F)cc1 + Cc1cccc(N(C)C(=O)C2C(O)CCN2c2nc(C)cc(C(F)(F)F)c2C#N)c1 = 94.1

Data provenance: PubChem BioAssay AID1963849
